Hello, the source for this data is ChEMBL document CHEMBL2375290, in case you need it.

test system: Escherichia coli; experiment: Antimicrobial activity against Escherichia coli at 200 ug after 24 hrs by agar disc diffusion method; format: functional; details: read-out: DIZ
For each of the molecules below, state its zone of inhibition at 200 µg/disc.
Entry rule: numbers only, all in mm.

Task: Assign zone of inhibition at 200 µg/disc to the following record: Nc1ncc(Sc2nc3ccc(Cl)cc3c(=O)n2Cc2ccccc2)s1
Output: 15

Task: Assign zone of inhibition at 200 µg/disc to the following record: O=C(O)c1ccc([N+](=O)[O-])cc1Sc1nc2ccc(Cl)cc2c(=O)n1-c1ccccc1
Output: 8

Task: Assign zone of inhibition at 200 µg/disc to the following record: Cc1ccc2nc(Sc3cnc(N)s3)n(-c3ccccc3)c(=O)c2c1
Output: 8

Task: Assign zone of inhibition at 200 µg/disc to the following record: COc1cc2nc(Sc3ncccc3C(=O)O)n(-c3ccccc3)c(=O)c2cc1OC
Output: 22

Task: Assign zone of inhibition at 200 µg/disc to the following record: CCOC(=O)c1nc(N)sc1Sc1nc2ccc(C)cc2c(=O)n1-c1ccccc1
Output: 18

###

system: RXF 393; experiment: Cytotoxicity against human RXF393 cells at 10 uM after 48 hrs by coulter counter analysis; type: functional; settings: RXF 393, 48 h, read-out: GI
For each of the molecules below, state its inhibition of growth at 10 µM.

Task: Assign inhibition of growth at 10 µM to the following record: O=C(O)c1cccnc1Sc1nc2ccc(Cl)cc2c(=O)n1-c1ccccc1
Output: < 10%

Task: Assign inhibition of growth at 10 µM to the following record: Nc1ncc(Sc2nc3ccc(Cl)cc3c(=O)n2-c2ccccc2)s1
Output: < 10%

Task: Assign inhibition of growth at 10 µM to the following record: COc1cc2nc(Sc3ncccc3C(=O)O)n(-c3ccccc3)c(=O)c2cc1OC
Output: < 10%

Task: Assign inhibition of growth at 10 µM to the following record: Cc1ccc2nc(Sc3ncccc3C(=O)O)n(Cc3ccccc3)c(=O)c2c1
Output: 21.5%

Task: Assign inhibition of growth at 10 µM to the following record: Cc1ccc2nc(Sc3cnc(N)s3)n(-c3ccccc3)c(=O)c2c1
Output: < 10%

Task: Assign inhibition of growth at 10 µM to the following record: O=C(O)c1cccnc1Sc1nc2ccc(Cl)cc2c(=O)n1Cc1ccccc1
Output: < 10%

###

Parameter pIC50, tested on Dihydrofolate reductase (Bos taurus), listed per item.
Sequence (P00376 whole entry): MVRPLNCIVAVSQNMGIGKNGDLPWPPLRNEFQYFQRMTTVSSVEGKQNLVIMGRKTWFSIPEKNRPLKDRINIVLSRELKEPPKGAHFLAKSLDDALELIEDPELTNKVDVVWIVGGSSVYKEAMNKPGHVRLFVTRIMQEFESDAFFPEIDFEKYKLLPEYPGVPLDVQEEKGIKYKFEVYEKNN
When answering, recall that pIC50 equals minus log10 of the concentration in mol/L, and write that number alone.

Task: Assign pIC50 to the following record: O=C(O)c1cccnc1Sc1nc2ccc(Cl)cc2c(=O)n1Cc1ccccc1
Output: 5.00

Task: Assign pIC50 to the following record: Nc1ncc(Sc2nc3ccc(Cl)cc3c(=O)n2Cc2ccccc2)s1
Output: 5.70

Task: Assign pIC50 to the following record: Cc1ccc2nc(Sc3ncccc3C(=O)O)n(Cc3ccccc3)c(=O)c2c1
Output: 5.00

Task: Assign pIC50 to the following record: O=C(O)c1ccc([N+](=O)[O-])cc1Sc1nc2ccc(Cl)cc2c(=O)n1-c1ccccc1
Output: 5.00

Task: Assign pIC50 to the following record: Nc1ncc(Sc2nc3ccc(Cl)cc3c(=O)n2-c2ccccc2)s1
Output: 5.40

Task: Assign pIC50 to the following record: Cc1ccc2nc(Sc3cnc(N)s3)n(-c3ccccc3)c(=O)c2c1
Output: 6.10

Task: Assign pIC50 to the following record: Cc1ccc2nc(Sc3cnc(N)s3)n(Cc3ccccc3)c(=O)c2c1
Output: 6.00

Task: Assign pIC50 to the following record: CCOC(=O)c1nc(N)sc1Sc1nc2ccc(C)cc2c(=O)n1Cc1ccccc1
Output: 5.40

Task: Assign pIC50 to the following record: COc1cc2nc(Sc3cnc(N)s3)n(Cc3ccccc3)c(=O)c2cc1OC
Output: 5.52

Task: Assign pIC50 to the following record: O=C(O)c1cccnc1Sc1nc2ccc(Cl)cc2c(=O)n1-c1ccccc1
Output: 5.10

Task: Assign pIC50 to the following record: COc1cc2nc(Sc3ncccc3C(=O)O)n(-c3ccccc3)c(=O)c2cc1OC
Output: 5.15

Task: Assign pIC50 to the following record: CCOC(=O)c1nc(N)sc1Sc1nc2cc(OC)c(OC)cc2c(=O)n1-c1ccccc1
Output: 6.52

Task: Assign pIC50 to the following record: COc1cc2nc(Sc3cnc(N)s3)n(-c3ccccc3)c(=O)c2cc1OC
Output: 6.30

Task: Assign pIC50 to the following record: COc1cc2nc(Sc3ncccc3C(=O)O)n(Cc3ccccc3)c(=O)c2cc1OC
Output: 5.30

Task: Assign pIC50 to the following record: Cc1ccc2nc(Sc3ncccc3C(=O)O)n(-c3ccccc3)c(=O)c2c1
Output: 5.10

Task: Assign pIC50 to the following record: O=C(O)c1ccc([N+](=O)[O-])cc1Sc1nc2ccc(Cl)cc2c(=O)n1Cc1ccccc1
Output: 5.10

Task: Assign pIC50 to the following record: COc1cc2nc(Sc3cc([N+](=O)[O-])ccc3C(=O)O)n(Cc3ccccc3)c(=O)c2cc1OC
Output: 5.52
